Test system: MDA-MB-231
Experiment: NCI tumour cell line growth inhibition, 48 h
Activity calls are given as the source filed them. Rule as the data show it: active = GI50 up to about 1.1 µM and inactive = higher.
Labels: active, inactive

- molecule: "CC(=O)n1nc(-c2nc3ccccc3nc2Cl)cc1Cl"
  target_entity: "MDA-MB-231"
  class: "inactive"
- molecule: "CCOC(=O)C(Cc1cn(C(C)=O)c2ccccc12)P(=O)(OCC)OCC (centres undefined)"
  target_entity: "MDA-MB-231"
  class: "inactive"
- molecule: "O=C1CCc2cc3c(cc21)CC1(Cc2cc4c(cc2C1)CCCC4)C3"
  target_entity: "MDA-MB-231"
  class: "inactive"
- molecule: "CCOc1ccc(N/C(=C(/C(Cl)=C(/Cl)NC(C)(C)C)[N+](=O)[O-])n2nnc3ccccc32)cc1"
  target_entity: "MDA-MB-231"
  class: "inactive"
- molecule: "O=C1c2cc(-c3ccccc3)cnc2S(=O)(=O)N1c1ccc(Br)cc1"
  target_entity: "MDA-MB-231"
  class: "inactive"
- molecule: "CC1=C(N2CC2)C(=O)C(CO)=C(N2CC2)C1=O"
  target_entity: "MDA-MB-231"
  class: "active"
- molecule: "Nc1c(C(=O)c2ccccc2)[nH]c(NCc2ccccc2)c1C(=S)Nc1ccccc1"
  target_entity: "MDA-MB-231"
  class: "inactive"
- molecule: "CC(C)(O)[C@@H]1CC[C@](C)(C2[C@@H](O)C[C@@]3(C)C4C[C@H](OC5OCC(O)C(O)C5O)[C@H]5C(C)(C)[C@@H](OC6OCC(O)C(O)C6OC6OCC(O)C(O)C6O)CC[C@@]56C[C@@]46CC[C@]23C)O1 (some centres undefined)"
  target_entity: "MDA-MB-231"
  class: "inactive"
- molecule: "COC1(OC)C2(Cl)C(Cl)=C(Cl)C1(Cl)C1c3ccc(C(C)=O)c4cccc(c34)C12 (centres undefined)"
  target_entity: "MDA-MB-231"
  class: "inactive"
